System: SK-MEL-5 melanoma
TEST METHOD NOTES: NCI tumour cell line growth inhibition, 48 h
ENDPOINT: TGI

Observe how each entry below is paired with its result.
{"COMPOUND": "C#Cc1c(F)ccc2cc(O)cc(-c3ncc4c(N5CC6CCC(C5)N6)nc(OC[C@@]56CCCN5C[C@H](F)C6)nc4c3F)c12", "TGI": "28.2 µM"}
{"COMPOUND": "CCOC(=O)c1cnc2oc3ccc(O)cc3c2c1C", "TGI": "> 100 µM"}
{"COMPOUND": "Cc1cc(=O)[nH]c(-n2[nH]c(C)c(CCO)c2=O)n1", "TGI": "> 100 µM"}

Please supply TGI for each of the following items, keeping them in order.
1. O=[N+]([O-])c1cc(C(F)(F)F)cc([N+](=O)[O-])c1CCl
2. O=C1c2ccccc2C(O)(O)C1(O)C1(O)C(=O)c2ccccc2C1(O)O (stereo unspecified)
3. COC1CC(OS(=O)(=O)c2ccc([N+](=O)[O-])cc2)C(OC(=O)c2ccccc2)C(C)O1 (stereo unspecified)
4. COCCOC(=O)c1c(C)n([O-])c2cc(Cl)c(Cl)cc2[n+]1=O
5. C=C(C)C(=O)Nc1ccc(NC(C)C)cc1
6. O=[N+]([O-])/C(C(Cl)=C(Cl)Cl)=C(\N1CCOCC1)n1nnc2ccccc21

stdout:
1.75 µM
39.4 µM
> 100 µM
21.6 µM
> 100 µM
35.3 µM

Please supply TGI for each of the following items, keeping them in order.
1. C[C@]12CCC(=O)C=C1CC[C@@H]1[C@@H]2CC[C@]2(C)C(=O)NC(=O)C[C@@H]12
2. O=C(c1cccs1)N(C(=S)N1CCN(c2ccccn2)CC1)c1ccccc1
3. CC(C)Cn1cnc2c(NCC(C)O)nc3ccccc3c21 (stereo unspecified)

stdout:
1. > 100 µM
2. > 100 µM
3. > 100 µM

====

Provide the reported GI50 of each item.
Test system: MOLT-4 leukemia
TEST METHOD NOTES: NCI tumour cell line growth inhibition, 48 h

Observe how each entry below is paired with its result.
{"MOL SMILES": "C=C1C(=O)O[C@H]2[C@H]1CC/C(COC(=O)NCc1ccc(Cn3c(=O)sn(CCCl)c3=O)cc1)=C\\CC[C@@]1(C)O[C@@H]21", "MEASUREMENT TARGET": "MOLT-4 leukemia", "VALUE OBSERVED": "1.85 µM"}
{"MOL SMILES": "COc1cc(CSc2nc3ccc(C)cc3c(=O)n2-c2ccccc2)cc(OC)c1OC", "MEASUREMENT TARGET": "MOLT-4 leukemia", "VALUE OBSERVED": "3.85 µM"}
{"MOL SMILES": "COc1ccc(/C(COc2ccc3c(=O)cc(-c4ccccc4)oc3c2)=N\\O)cc1", "MEASUREMENT TARGET": "MOLT-4 leukemia", "VALUE OBSERVED": "> 50 µM"}
{"MOL SMILES": "O=[N+]([O-])O.[Cu+2].[NH-]CC[NH-].[NH-]CC[NH-]", "MEASUREMENT TARGET": "MOLT-4 leukemia", "VALUE OBSERVED": "> 10 µM"}
{"MOL SMILES": "CN[C@@H](C)C(=O)N[C@H](C(=O)N1CCC[C@H]1C(=O)Nc1snnc1-c1ccccc1)C1CCCCC1", "MEASUREMENT TARGET": "MOLT-4 leukemia", "VALUE OBSERVED": "36.6 µM"}
{"MOL SMILES": "Nc1ncnc2nc[nH]c12", "MEASUREMENT TARGET": "MOLT-4 leukemia", "VALUE OBSERVED": "15.8 µM"}

Shifting focus to the compound that follows.
stdin: Determine its reported GI50: CC(C)(C)OC(=O)N1CCN(CCn2cc(C(F)(F)F)c3c(Cl)ncnc32)CC1
stdout: 2.62 µM

====

Test system: HCT-15 colon
TEST METHOD NOTES: NCI tumour cell line growth inhibition, 48 h
Provide the reported TGI of each item.

Observe how each entry below is paired with its result.
{"COMPOUND": "NN(CC(=O)O)CC(=O)O", "TGI": "> 100 µM"}
{"COMPOUND": "Clc1ccc(C2SCc3nc4ccccc4n32)c(Cl)c1 (centres undefined)", "TGI": "37.5 µM"}
{"COMPOUND": "NC(N)=N/N=C/c1c(-c2ccc(Cl)cc2)nc2sccn12", "TGI": "6.36 µM"}

Please supply TGI for each of the following items, keeping them in order.
1. c1ccc2[nH]c(-c3ccc(-c4nccc5c4[nH]c4ccccc45)cc3)nc2c1
2. C=C(C)C(=O)O[C@H]1CC(=C)[C@@H]2C[C@H](O)[C@](O)(CCl)[C@@H]2[C@H]2OC(=O)C(=C)[C@@H]21
3. C=CCNC1=C2C[C@@H](C)C[C@@H](OC)[C@H](OC(=O)CCN)[C@H](C)/C=C(\C)[C@@H](OC(N)=O)[C@H](OC)/C=C\C=C(/C)C(=O)NC(=CC1=O)C2=O
4. CCc1n[nH]c(=O)n1/N=C/c1c(O)ccc2ccccc12
5. O=C(CSc1nnc(-c2ccc(N=Cc3ccc(Cl)cc3)cc2)o1)Nc1ccccc1[N+](=O)[O-]
6. C=C(C)C1=CCC[C@]2(C1)N=C(OC)[C@@H](C(C)C)N=C2OC
7. O=C([CH-]C(=O)c1ccccc1)c1ccccc1.O=C([CH-]C(=O)c1ccccc1)c1ccccc1.[La+3].[OH-].[OH3+]
8. O=C(c1cccs1)N(C(=S)N1CCN(c2ccccn2)CC1)c1ccccc1

stdout:
5.61 µM
4.42 µM
23.7 µM
> 100 µM
> 100 µM
> 100 µM
48.1 µM
> 100 µM

Please supply TGI for each of the following items, keeping them in order.
1. O=C(ON=C1c2ccccc2C(Br)C(Br)c2ccccc21)c1cc([N+](=O)[O-])cc([N+](=O)[O-])c1 (centres undefined)
2. CC(=O)OCC1OC(n2cnc(C(N)=S)c2N)C(OC(C)=O)C1OC(C)=O (centres undefined)
3. CCOC(=O)NC(=O)c1cn(CCOC(=O)CCCCCCCCC(=O)OCCn2cc(C(=O)NC(=O)OCC)c(=O)[nH]c2=O)c(=O)[nH]c1=O
4. O=c1c2c(oc3ccccc13)-c1ccccc1OC2
5. CCCCCCCCCCCCCCCCCCNC(=O)C(N)Cc1ccc(OCc2ccccc2)cn1 (centres undefined)

stdout:
1. 42.7 µM
2. > 100 µM
3. > 100 µM
4. > 100 µM
5. 37.3 µM

Please supply TGI for each of the following items, keeping them in order.
1. CC(C)(C)c1ccc(Oc2nccc(-c3c(-c4ccc(F)cc4)ncn3C3CCNCC3)n2)cc1
2. CCCCCCCCCCCCCCCCCCNc1ccn(C2OC(COP(=O)(O)OCC3OC(n4cc(F)c(=O)[nH]c4=O)CC3O)C(O)C2O)c(=O)n1 (centres undefined)
3. CCOc1ccc2c(c1)[n+]([O-])c(-c1ccc(Cl)cc1)c(N)[n+]2[O-]
4. O=C(CC(=O)N(C(=O)/C=C\c1ccccc1)c1ccc(Cl)cc1)N1N=C(c2ccccc2)C(N=Nc2cccc([N+](=O)[O-])c2)C1=O (centres undefined)

stdout:
6.68 µM
> 100 µM
> 100 µM
21.6 µM

====

Provide the reported TGI of each item.
Tested on: 786-0 renal
TEST METHOD NOTES: NCI tumour cell line growth inhibition, 48 h

{"COMPOUND": "COc1cc(/C=C2/C(=O)N(C(=O)OCC(C)C)C(Cc3cc(OC)c(OC)c(C)c3OC)C(=O)N2Cc2ccccc2)c(OC)c(C)c1OC (centres undefined)", "TGI": "> 100 µM"}
{"COMPOUND": "COc1ccc(Nc2nnc(-c3nsc4ccccc34)s2)cc1", "TGI": "9.77 µM"}
{"COMPOUND": "C=Cc1ccc(C)[n+](C[Si](C)(C)O[Si](C)(C)C)c1", "TGI": "> 100 µM"}

Shifting focus to the compound that follows.
stdin: Determine its reported TGI: CCCCCCCCCCCCCCCCCCNc1ccn(C2OC(COP(=O)(O)OCC3OC(n4cc(F)c(=O)[nH]c4=O)CC3O)C(O)C2O)c(=O)n1 (centres undefined)
stdout: > 100 µM

====

Test system: M14 melanoma
TEST METHOD NOTES: NCI tumour cell line growth inhibition, 48 h
ENDPOINT: TGI (µM)
One number for each entry, in µM.

Observe how each entry below is paired with its result.
{"MOLECULE": "COc1cc(C(=O)O[C@H](C(=O)NCCCCCNC(=O)[C@@H](OC(=O)c2cc(OC)cc3c(C)cccc23)[C@]2(C)CO2)[C@]2(C)CO2)c2cccc(C)c2c1", "VALUE OBSERVED": 0.305}
{"MOLECULE": "COc1cc2ccc(/C=C\\[N+](=O)[O-])cc2cc1OC", "VALUE OBSERVED": 7.41}
{"MOLECULE": "CC(C)(C)c1ccc(Oc2nccc(-c3c(-c4ccc(F)cc4)ncn3C3CCNCC3)n2)cc1", "VALUE OBSERVED": 8.46}

stdin: Determine its reported TGI: CC(=O)NC1C(OCc2ccccc2)OC(CO)C(O)C1OC(C)C(=O)NC(C(=O)N[C@@H](CCC(=O)NCCNCCNc1c2ccccc2nc2cccc([N+](=O)[O-])c12)C(N)=O)C(C)C (some centres undefined)
stdout: 32.2

Reference source: PubChem BioAssay (NCI)
